Data credit: PubChem BioAssay (NCI)

Assay: NCI Yeast Anticancer Drug Screen. Data for the bub3 strain (AID 167)
Conditions: S. cerevisiae bub3 mutant strain, at 5.0 µM (retest, dose inferred, filed as 0.5)
Compounds without any hit were thinned out: in the full panel of roughly 79,000, 15% have a hit. Activity calls are given as the source filed them. No stated cut-off is given here; in the data, active means growth inhibition above about 70%; inactive means the rest.
Answer with one of the outcomes active, inactive

Consider the worked cases shown below.
CCCCCCSC(=Cc1cccc[n+]1C)SCCCCCC
active
C1=C(C2=CCCc3ccccc32)c2ccccc2CC1
inactive
C/C(=N/NC(=O)c1ccccc1S(N)(=O)=O)C(CN1CCCCC1)C(C1=C(O)C2C=CC=CC2OC1=O)c1ccccc1 (configuration not stated)
inactive
O=C(Nc1c(Cl)cc([N+](=O)[O-])cc1Cl)/C(=N\Nc1cccc(Cl)c1)c1c(O)c2ccccc2oc1=O
inactive
Cn1c(=O)ccc2cc(C(=O)c3ccccc3)ccc21
inactive
Cc1[nH]nc(C(=O)N/N=C/c2ccccc2Cl)c1N=NN(C)C
inactive
O=NN(CCCl)C(=O)Nc1cc(=O)[nH]c(SCc2ccccc2)n1
inactive
CCCCCCCCCCOC(=O)c1cccnc1
inactive

Q) How did this test come out for `CCCCN(CCCC)CC(=O)c1ccc2cc(Cl)c3ccccc3c2c1` ?
A) inactive

Q) How did this test come out for `O=[N+]([O-])c1ccc(Sc2ccc([N+](=O)[O-])o2)cc1` ?
A) active

Q) How did this test come out for `CCOC(=O)Cn1c(=O)c2nc(SC)sc2n(-c2ccc(C)cc2)c1=S` ?
A) inactive

Q) How did this test come out for COc1cc(C2C(Cl)C(=O)N2NC(=O)c2ccccc2O)cc(OC)c1OC (configuration not stated) ?
A) inactive

Q) How did this test come out for Cc1ccc(S(=O)(=O)OCC(/C=N/NC(N)=O)OCOC(C)/C=N/NC(N)=O)cc1 (configuration not stated) ?
A) inactive

Q) How did this test come out for C=C(C)/C([O-])=N/[N+](C)(C)CC(O)CCCCCCCCCCCC (configuration not stated) ?
A) inactive

Q) How did this test come out for `Cc1cc(SCC(=O)c2ccc(Cl)cc2)cc(C)[o+]1` ?
A) inactive

Q) How did this test come out for `C=Cc1cc(O)cc2c1-c1ccc(O)c(C)c1CC2` ?
A) inactive

Q) How did this test come out for `c1csc(-c2nccc3c2[nH]c2ccccc23)c1` ?
A) inactive

Q) How did this test come out for CCCCN(CCCC)CC(O)c1cc(-c2ccc(Cl)cc2)nc2c(-c3ccccc3)cccc12 (configuration not stated) ?
A) inactive

Q) How did this test come out for COC(=O)CC1c2cc(OC)c3cccc(OC)c3c2CCC1(C)C(=O)OC (configuration not stated) ?
A) active

Q) How did this test come out for `CCOC(=O)CN1C(=O)S/C(=C/c2ccc([N+](=O)[O-])o2)C1=O` ?
A) inactive

Q) How did this test come out for Cc1cccc(CC(C)(C)C)c1NC(=O)C(=O)C(C(=O)c1ccc2ccccc2c1)C1OC(=O)c2ccccc21 (configuration not stated) ?
A) inactive

Q) How did this test come out for `COc1ccc(CSC(=S)Nc2ccccc2C(F)(F)F)cc1` ?
A) inactive
